# assayed-target: UniProtKB Q16678
# assay-notes: Inhibition of human liver CYP1B1 expressed in Saccharomyces cerevisiae YY7 microsomal membranes using 7-ethoxyresorufin as substrate after 10 mins by fluorescence assay
// reported pIC50 for each item listed
Lab note — pIC50 values are minus log10 of concentrations in M.

Example results:
# line-notation, assayed-target, pIC50
rows = [
    ("O=C(/C=C/c1cccnc1)c1cccc(Br)c1", "UniProtKB Q16678", 7.19),
    ("O=C(/C=C/c1ccncc1)c1ccc2ccccc2c1", "UniProtKB Q16678", 6.73),
    ("COc1ccc2cc(C(=O)/C=C/c3cccnc3)ccc2c1", "UniProtKB Q16678", 8.05),
    ("O=C(/C=C/c1cccnc1)c1cccc2ccccc12", "UniProtKB Q16678", 7.64),
    ("COc1ccc(/C=C/C(=O)c2cccnc2)c(OC)c1OC", "UniProtKB Q16678", 7.51),
    ("O=C(/C=C/c1ccc(F)c(F)c1)c1cccnc1", "UniProtKB Q16678", 6.92),
    ("COc1ccccc1/C=C/C(=O)c1cccnc1", "UniProtKB Q16678", 7.82),
    ("COc1cccc(/C=C/C(=O)c2cccnc2)c1", "UniProtKB Q16678", 7.49),
    ("O=C(/C=C/c1cccc(O)c1)c1cccnc1", "UniProtKB Q16678", 6.33),
    ("O=C(/C=C/c1cccnc1)c1cc2ccccc2c2ccccc12", "UniProtKB Q16678", 6.88),
]

Lab note: measured pIC50 of COc1cc(/C=C/C(=O)c2cccnc2)cc(OC)c1OC was 6.46

Lab note: measured pIC50 of O=C(/C=C/c1ccc2c(c1)OCO2)c1cccnc1 was 7.54

Lab note: measured pIC50 of COc1ccc(C(=O)/C=C/c2cccnc2)cc1OC was 6.75

---

# assay-notes: Solubility of the compound in pH 6.8 simulated intestinal fluid
# Format: physicochemical
metric-name: solubility (µg/mL)
All answers are understood in µg/mL, so give the number only.

# line-notation, unit-abbrev, observed-value
data = [
    ("O=C(/C=C/c1ccc2ccccc2c1)c1cccnc1", "µg/mL", 0.45),
    ("COc1ccc2cc(C(=O)/C=C/c3cccnc3)ccc2c1", "µg/mL", 0.27),
]

Lab note: measured solubility of O=c1cc(-c2ccccc2)oc2c1ccc1ccccc12 was 0.58

---

Notes on pIC50 obtained with Cytochrome P450 1A2 (Homo sapiens).
Sequence (P05177 whole entry): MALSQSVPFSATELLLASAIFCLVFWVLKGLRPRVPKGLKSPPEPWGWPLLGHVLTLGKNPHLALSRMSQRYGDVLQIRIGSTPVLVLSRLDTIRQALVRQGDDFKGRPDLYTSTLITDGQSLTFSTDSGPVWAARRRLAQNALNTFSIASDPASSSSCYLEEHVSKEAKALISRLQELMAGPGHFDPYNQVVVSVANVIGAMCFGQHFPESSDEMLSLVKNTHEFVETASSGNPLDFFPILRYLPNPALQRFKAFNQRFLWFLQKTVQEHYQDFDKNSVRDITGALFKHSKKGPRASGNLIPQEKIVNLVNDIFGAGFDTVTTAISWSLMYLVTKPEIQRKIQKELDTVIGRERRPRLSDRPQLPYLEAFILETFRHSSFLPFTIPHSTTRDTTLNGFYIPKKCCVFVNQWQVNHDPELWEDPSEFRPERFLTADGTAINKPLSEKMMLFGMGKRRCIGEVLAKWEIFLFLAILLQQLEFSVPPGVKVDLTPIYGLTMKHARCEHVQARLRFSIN
Lab note — pIC50 values are minus log10 of concentrations in M.

Example results:
# line-notation, assayed-target, metric-name, observed-value
rows = [
    ("O=C(/C=C/c1cccnc1)c1ccc(-c2ccccc2)cc1", "Cytochrome P450 1A2 (Homo sapiens)", "pIC50", 5.64),
    ("COc1ccc(C(=O)/C=C/c2cccnc2)c(OC)c1", "Cytochrome P450 1A2 (Homo sapiens)", "pIC50", 6.36),
    ("O=C(/C=C/c1cccnc1)c1cccc(Cl)c1", "Cytochrome P450 1A2 (Homo sapiens)", "pIC50", 6.62),
    ("O=C(/C=C/c1cccnc1)c1ccc2ccc3cccc4ccc1c2c34", "Cytochrome P450 1A2 (Homo sapiens)", "pIC50", 5.68),
    ("O=C(/C=C/c1ccccc1)c1cccnc1", "Cytochrome P450 1A2 (Homo sapiens)", "pIC50", 5.33),
]

Lab note: measured pIC50 of COc1ccc(C(=O)/C=C/c2cccnc2)c(OC)c1OC was 6.75

Lab note: measured pIC50 of COc1ccc(/C=C/C(=O)c2cccnc2)cc1OC was 6.59

Lab note: measured pIC50 of COc1ccc(/C=C/C(=O)c2cccnc2)c(OC)c1OC was 6.77

Lab note: measured pIC50 of O=C(/C=C/c1ccncc1)c1ccc2ccccc2c1 was 6.52

Lab note: measured pIC50 of COc1cc(OC)cc(C(=O)/C=C/c2cccnc2)c1 was 6.51

Lab note: measured pIC50 of COc1ccc(C(=O)/C=C/c2cccnc2)cc1OC was 6.15

Lab note: measured pIC50 of COc1ccc(C(=O)/C=C/c2cccnc2)cc1 was 5.62

Lab note: measured pIC50 of O=C(/C=C/c1cccnc1)c1ccc2ccc3ccccc3c2c1 was 6.00

Lab note: measured pIC50 of O=C(/C=C/c1ccc(F)c(F)c1)c1cccnc1 was 6.07

Lab note: measured pIC50 of COc1ccccc1/C=C/C(=O)c1cccnc1 was 6.66

Lab note: measured pIC50 of COc1ccc2cc(C(=O)/C=C/c3cccnc3)ccc2c1 was 5.92

---

# assayed-target: Cytochrome P450 3A4 (Homo sapiens, UniProt P08684)
# Sequence (P08684 whole entry): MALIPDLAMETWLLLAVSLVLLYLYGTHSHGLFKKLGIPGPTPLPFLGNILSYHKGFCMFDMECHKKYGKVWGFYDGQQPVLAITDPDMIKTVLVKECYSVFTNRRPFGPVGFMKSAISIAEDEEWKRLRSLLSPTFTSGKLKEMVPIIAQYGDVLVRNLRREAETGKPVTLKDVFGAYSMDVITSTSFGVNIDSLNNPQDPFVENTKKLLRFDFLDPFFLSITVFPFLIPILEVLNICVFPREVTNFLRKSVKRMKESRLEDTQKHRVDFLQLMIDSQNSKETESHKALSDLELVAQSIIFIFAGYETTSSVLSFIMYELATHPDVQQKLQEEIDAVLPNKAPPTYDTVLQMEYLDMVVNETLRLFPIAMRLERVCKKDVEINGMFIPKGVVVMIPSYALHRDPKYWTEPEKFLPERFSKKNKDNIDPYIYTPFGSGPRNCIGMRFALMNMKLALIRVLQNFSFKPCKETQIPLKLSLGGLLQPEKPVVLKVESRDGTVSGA
metric-name: pIC50
Lab note — pIC50 values are minus log10 of concentrations in M.

# line-notation, pIC50
measured = [
    ("COc1cccc(/C=C/C(=O)c2cccnc2)c1", 5.89),
    ("O=C(/C=C/c1cccnc1)c1cccc2ccccc12", 5.22),
    ("O=C(/C=C/c1ccc2c(c1)OCO2)c1cccnc1", 4.92),
    ("COc1ccc(/C=C/C(=O)c2cccnc2)cc1OC", 4.28),
]

The record that follows has no pIC50 shown yet.
Record O=C(/C=C/c1ccc(Cl)c(Cl)c1)c1cccnc1 has Cytochrome P450 3A4 (Homo sapiens, UniProt P08684) pIC50 equal to 4.82

---

// reported IC50 for each item listed
# assayed-target: Cytochrome P450 1A1 (Homo sapiens, UniProt P04798)
# Sequence (P04798 whole entry): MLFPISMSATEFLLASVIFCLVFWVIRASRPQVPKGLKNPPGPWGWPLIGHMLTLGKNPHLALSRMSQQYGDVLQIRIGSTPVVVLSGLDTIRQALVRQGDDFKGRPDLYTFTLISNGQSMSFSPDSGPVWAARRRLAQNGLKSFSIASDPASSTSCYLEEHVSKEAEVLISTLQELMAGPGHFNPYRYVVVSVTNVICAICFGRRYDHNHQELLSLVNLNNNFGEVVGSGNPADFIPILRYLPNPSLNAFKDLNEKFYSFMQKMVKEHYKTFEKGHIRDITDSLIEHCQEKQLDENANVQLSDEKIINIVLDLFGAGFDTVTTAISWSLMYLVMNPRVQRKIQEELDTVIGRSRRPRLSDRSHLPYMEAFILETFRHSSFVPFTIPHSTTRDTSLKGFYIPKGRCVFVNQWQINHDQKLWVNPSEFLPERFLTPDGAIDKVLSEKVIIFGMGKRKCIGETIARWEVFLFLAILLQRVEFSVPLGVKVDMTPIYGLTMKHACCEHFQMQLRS
# assay-notes: Inhibition of human liver CYP1A1 expressed in Saccharomyces cerevisiae YY7 microsomal membranes using 7-ethoxyresorufin as substrate after 10 mins by fluorescence assay
# Assay type: ADME, Microsomal Membrane
All answers are understood in nM, so give the number only.

# line-notation, assayed-target, observed-value
rows = [
    ("COc1cccc(C(=O)/C=C/c2cccnc2)c1", "Cytochrome P450 1A1 (Homo sapiens, UniProt P04798)", 3500),
    ("COc1ccccc1/C=C/C(=O)c1cccnc1", "Cytochrome P450 1A1 (Homo sapiens, UniProt P04798)", 4700),
    ("COc1cc(/C=C/C(=O)c2cccnc2)cc(OC)c1OC", "Cytochrome P450 1A1 (Homo sapiens, UniProt P04798)", 288),
    ("O=C(/C=C/c1cccnc1)c1ccc2ccc3cccc4ccc1c2c34", "Cytochrome P450 1A1 (Homo sapiens, UniProt P04798)", 2200),
]

Lab note: measured IC50 of O=C(/C=C/c1cccnc1)c1ccc2ccc3ccccc3c2c1 was 122

Lab note: measured IC50 of COc1ccc(C(=O)/C=C/c2cccnc2)c(OC)c1 was 1500

Lab note: measured IC50 of COc1ccc(/C=C/C(=O)c2cccnc2)cc1O was 2600

Lab note: measured IC50 of O=C(/C=C/c1ccccc1)c1cccnc1 was 31800

Lab note: measured IC50 of O=C(/C=C/c1cccnc1)c1cccc2ccccc12 was 958

Lab note: measured IC50 of O=C(/C=C/c1cccnc1)c1cccc(Br)c1 was 2600

Lab note: measured IC50 of O=C(/C=C/c1cccnc1)c1cc2ccccc2c2ccccc12 was 58

Lab note: measured IC50 of O=C(/C=C/c1ccncc1)c1ccc2ccccc2c1 was 907

Lab note: measured IC50 of O=C(/C=C/c1ccc(F)c(F)c1)c1cccnc1 was 11800

Lab note: measured IC50 of COc1cccc(/C=C/C(=O)c2cccnc2)c1 was 10500

Lab note: measured IC50 of COc1ccc(C(=O)/C=C/c2cccnc2)c(OC)c1OC was 5300

Lab note: measured IC50 of COc1ccc(/C=C/C(=O)c2cccnc2)cc1OC was 1400

---

# assayed-target: CYP1B1 (Homo sapiens, UniProt Q16678)
# Sequence (Q16678 whole entry): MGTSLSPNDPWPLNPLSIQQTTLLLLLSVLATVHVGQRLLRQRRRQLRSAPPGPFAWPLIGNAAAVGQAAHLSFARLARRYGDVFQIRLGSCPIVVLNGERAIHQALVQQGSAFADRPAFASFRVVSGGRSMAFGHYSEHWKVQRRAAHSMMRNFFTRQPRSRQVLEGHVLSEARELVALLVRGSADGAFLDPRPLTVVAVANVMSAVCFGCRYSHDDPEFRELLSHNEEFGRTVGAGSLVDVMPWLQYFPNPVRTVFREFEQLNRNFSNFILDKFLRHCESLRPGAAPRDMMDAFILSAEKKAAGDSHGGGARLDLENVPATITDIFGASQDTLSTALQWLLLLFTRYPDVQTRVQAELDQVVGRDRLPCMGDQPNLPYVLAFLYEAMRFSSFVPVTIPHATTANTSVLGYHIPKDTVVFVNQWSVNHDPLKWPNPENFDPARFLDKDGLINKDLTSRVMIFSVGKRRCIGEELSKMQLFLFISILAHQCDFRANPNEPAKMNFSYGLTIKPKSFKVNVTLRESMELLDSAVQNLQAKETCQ
# assay-notes: Inhibition of human liver CYP1B1 expressed in Saccharomyces cerevisiae YY7 microsomal membranes at 1 uM using 7-ethoxyresorufin as substrate after 10 mins by fluorescence assay relative to control
# condition-notes: probe 7-ethoxyresorufin
metric-name: inhibition at 10 min, 1 µM

Lab note: measured inhibition at 10 min, 1 µM of O=c1cc(-c2ccccc2)oc2c1ccc1ccccc12 was > 80%

---

// reported IC50 for each item listed
# assayed-target: UniProt:P10635
# Sequence (P10635 whole entry): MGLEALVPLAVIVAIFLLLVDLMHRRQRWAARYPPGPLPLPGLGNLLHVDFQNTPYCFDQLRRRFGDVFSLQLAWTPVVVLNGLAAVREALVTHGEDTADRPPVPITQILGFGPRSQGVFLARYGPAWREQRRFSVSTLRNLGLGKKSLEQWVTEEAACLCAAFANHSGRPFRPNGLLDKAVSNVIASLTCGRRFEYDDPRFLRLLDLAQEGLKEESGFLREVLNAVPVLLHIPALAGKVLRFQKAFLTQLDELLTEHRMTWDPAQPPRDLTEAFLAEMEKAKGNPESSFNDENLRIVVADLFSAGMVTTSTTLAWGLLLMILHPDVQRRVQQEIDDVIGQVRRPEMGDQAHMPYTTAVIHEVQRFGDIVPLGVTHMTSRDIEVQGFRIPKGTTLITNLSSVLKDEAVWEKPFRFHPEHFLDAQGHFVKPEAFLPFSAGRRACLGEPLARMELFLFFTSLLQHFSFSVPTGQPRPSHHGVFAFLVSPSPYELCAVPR
# include the unit after the value

# line-notation, assayed-target, observed-value
measured = [
    ("O=C(/C=C/c1cccnc1)c1cccc2ccccc12", "UniProt:P10635", "1.3 µM"),
]

The record that follows has no IC50 shown yet.
Record COc1ccc(C(=O)/C=C/c2cccnc2)c(OC)c1 has UniProt:P10635 IC50 equal to 7.7 µM

---

# assay-notes: Solubility of the compound in pH 7.4 PBS buffer
# Format: physicochemical
metric-name: solubility (µg/mL)
All answers are understood in µg/mL, so give the number only.

Lab note: measured solubility of O=c1cc(-c2ccccc2)oc2c1ccc1ccccc12 was 6.85

Lab note: measured solubility of COc1ccc2cc(C(=O)/C=C/c3cccnc3)ccc2c1 was 20.1

Lab note: measured solubility of O=C(/C=C/c1ccc2ccccc2c1)c1cccnc1 was 14.5
